test-system: T1, ZFP SBS#298 (synthetic)
T1 chain: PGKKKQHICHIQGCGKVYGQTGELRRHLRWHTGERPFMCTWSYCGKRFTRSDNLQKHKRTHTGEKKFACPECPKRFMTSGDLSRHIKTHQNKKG
procedure-summary: EMSA
condition-set: tags: MBP fusion
outcome-measure: Kd (µM)

1) GCTTAGGCA (dsDNA) DNA 1: GCTTAGGCA DNA 2: TGCCTAAGC : 4
